system: dengue virus (DENV); assay: anti-dengue virus activity (EC50); format: cell-based
EC50 listing for selected molecules.
Entry rule: numbers only, all in µM.

Recorded results for 6 molecules are shown here.
(Q) Consider the molecule shown here: CC(C)(C)[Si](C)(C)Oc1ccc(C2N(Nc3ccc([N+](=O)[O-])cc3)C(=O)C3CCc4ccccc4N32)cc1 (centres unmarked) [ZXD-132A] What is its recorded EC50?
(A) 0.64

(Q) Would you kindly share the measured EC50 for COc1ccc([C@H]2N(Nc3ccc([N+](=O)[O-])cc3)C(=O)[C@@H]3Cc4ccccc4N32)cc1O[Si](C)(C)C(C)(C)C ?
(A) 24.8

(Q) Query (molecule): O=C1[C@@H]2CCc3ccccc3N2[C@@H](c2ccc([N+](=O)[O-])cc2)N1Nc1ccc([N+](=O)[O-])cc1 [ZXD-78A] ; field requested: EC50
(A) 0.17

(Q) Entry O=C1[C@@H]2CCc3ccccc3N2[C@@H](c2ccccc2O)N1Nc1ccccc1 [ZXD-120B] : reported EC50 = ?
(A) 6.5

(Q) # EC50 lookup, item O=C1[C@@H]2CCc3ccccc3N2[C@@H](Cc2ccc(O)cc2)N1Nc1ccccc1 [ZXD-127B]
(A) 5.2

(Q) Please give the measured EC50 for this molecule: C=C(C)c1ccc(C2N(Nc3ccccc3)C(=O)C3CCc4ccccc4N32)cc1 (centres unmarked) [ZXD-89A]
(A) 0.74

More entries:
(Q) # lookup: EC50 of O=C(NNc1ccc([N+](=O)[O-])cc1)C1CCc2ccccc2N1 (centres unmarked)
(A) 0.31

(Q) Given the molecule O=C1[C@@H]2CCc3ccccc3N2[C@@H](Cc2ccc([N+](=O)[O-])cc2)N1Nc1ccccc1 [ZXD-100B] , what is its reported EC50?
(A) 0.85
